- assay-details: Free fraction in mouse plasma
- Type: in vitro ADME
measured-property: fraction unbound

[[record]]
compound = "CC(C)N(CC1CCN(c2ncc(C(=O)N[C@H]3C(C)(C)[C@H](Oc4ccc(C#N)c(Cl)c4)C3(C)C)cn2)CC1)[C@H]1C[C@H](Oc2ccc3c(c2)C(=O)N(C2CCC(=O)NC2=O)C3=O)C1 (stereo partly shown)"
reading = 0.0044


====

- assayed-system: AR (Homo sapiens, UniProt P10275)
- Sequence (P10275 whole entry Q868H, form open): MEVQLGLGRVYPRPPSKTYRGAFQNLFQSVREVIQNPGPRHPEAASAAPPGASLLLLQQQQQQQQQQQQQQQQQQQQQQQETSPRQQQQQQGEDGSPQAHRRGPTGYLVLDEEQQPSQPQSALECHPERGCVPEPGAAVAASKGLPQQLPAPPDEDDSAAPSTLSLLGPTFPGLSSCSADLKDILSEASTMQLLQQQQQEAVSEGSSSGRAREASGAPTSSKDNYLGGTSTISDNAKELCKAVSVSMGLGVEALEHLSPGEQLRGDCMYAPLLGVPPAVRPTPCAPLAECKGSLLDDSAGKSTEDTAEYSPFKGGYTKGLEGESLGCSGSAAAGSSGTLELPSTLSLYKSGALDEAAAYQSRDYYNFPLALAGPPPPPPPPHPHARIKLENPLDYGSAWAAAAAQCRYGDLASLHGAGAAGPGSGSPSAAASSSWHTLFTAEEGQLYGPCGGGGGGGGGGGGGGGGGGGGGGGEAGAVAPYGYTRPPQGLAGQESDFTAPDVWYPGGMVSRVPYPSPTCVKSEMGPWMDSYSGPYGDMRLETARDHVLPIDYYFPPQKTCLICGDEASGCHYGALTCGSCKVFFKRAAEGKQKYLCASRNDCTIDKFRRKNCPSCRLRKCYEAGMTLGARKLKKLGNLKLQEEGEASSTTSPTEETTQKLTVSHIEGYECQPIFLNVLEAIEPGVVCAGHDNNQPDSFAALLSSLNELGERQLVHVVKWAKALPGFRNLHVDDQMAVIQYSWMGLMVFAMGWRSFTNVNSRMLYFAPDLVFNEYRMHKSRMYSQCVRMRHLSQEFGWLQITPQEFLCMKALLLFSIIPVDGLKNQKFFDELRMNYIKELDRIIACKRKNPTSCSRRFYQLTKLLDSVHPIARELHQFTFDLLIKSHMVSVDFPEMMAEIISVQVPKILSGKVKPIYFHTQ
- assay-details: AR agonism assay in MDA-MB-453 ARE-luc reporter cells in the presence of pomalidomide
- condition-label: MDA-MB-453 AR luciferase reporter, with pomalidomide; read-out: EC50, AR agonist activity
measured-property: EC50 (nM)

[[record]]
compound = "Cc1cc(O[C@H]2C(C)(C)[C@H](NC(=O)c3cnc(N4CCC(CN(C(C)C)[C@H]5C[C@H](Oc6ccc7c(c6)C(=O)N(C6CCC(=O)NC6=O)C7=O)C5)CC4)nc3)C2(C)C)cc(C)c1C#N (some centres unmarked) [Compound B]"
assayed_system = "AR (Homo sapiens, UniProt P10275)"
measured_property = "EC50"
reading = 37

[[record]]
compound = "CC(C)N(CC1CCN(c2ncc(C(=O)N[C@H]3C(C)(C)[C@H](Oc4ccc(C#N)c(Cl)c4)C3(C)C)cn2)CC1)[C@H]1C[C@H](Oc2ccc3c(c2)C(=O)N(C2CCC(=O)NC2=O)C3=O)C1 (some centres unmarked) [Compound A]"
assayed_system = "AR (Homo sapiens, UniProt P10275)"
measured_property = "EC50"
reading = 69

